Measured GI50 of individual entries
# Tested on: OVCAR-4
# experimentDescription: NCI tumour cell line growth inhibition, 48 h
Calls of active or inactive are those of the source. Cut-off read from the data, not from the text of the source: active = GI50 up to about 1.1 µM and inactive = higher.

Cc1nc(N)sc1/N=N/c1ccccc1Br | > 35.3 µM (inactive)

// sample NC(=O)C(=O)n1ncc(Cl)c(Cl)c1=O , its GI50 was 29.4 µM (inactive)

// sample COc1cccc(NC(=O)CC(=O)NN2C(=O)/C(=C/c3ccc(N(CCC#N)CCC#N)cc3)N=C2c2cc([N+](=O)[O-])ccc2Cl)c1 , its GI50 was 99.1 µM (inactive)

---

# System: TK-10
# experimentDescription: NCI tumour cell line growth inhibition, 48 h
Active and inactive are the calls of the source. Cut-off read from the data, not from the text of the source: active = GI50 up to about 1.1 µM and inactive = higher. Peptide text beside a SMILES is read from it. * marks the point of attachment. Boc = CC(C)(C)OC(=O)*
Please answer using one outcome listed in active, inactive

Cc1ccc(S(=O)(=O)NC(CN)C(=O)O)cc1 (stereo not given) | inactive
C=C(CC[C@@H](C)[C@H]1CC[C@H]2[C@@H]3C[C@@H](O)[C@H]4C[C@@H](O)CC[C@]4(CO)[C@H]3CC[C@]12C)C(C)C | inactive
Cc1nc2c(n1C)C(=O)c1nc(CBr)[nH]c(=O)c1C2=O | inactive

-- ask Write down the call the test reported for this molecule. Item: COC(=O)C(Cc1ccccc1)NC(=O)C(CS)NC(=O)OC(C)(C)C (stereo not drawn) (Boc-Cys-Phe-OMe; configuration not given here)
-- reply inactive

-- ask Write down the call the test reported for this molecule. Item: O=C1C=CC(=O)c2cc(Sc3ccccc3)c(=O)c(Sc3ccccc3)cc21
-- reply inactive

-- ask Write down the call the test reported for this molecule. Item: COC(=O)C1=C(OC)[C@H]2C#C/C=C\C#C[C@@H]3Nc4c(cc(O)c5c4C(=O)c4ccccc4C5=O)[C@]24O[C@@]34[C@H]1C
-- reply active

-- ask Write down the call the test reported for this molecule. Item: O=C(OCCO)C1CC2CC1C1(C2)OCCO1 (stereo not given)
-- reply inactive

-- ask Write down the call the test reported for this molecule. Item: NC(=S)SCCC(=O)O
-- reply inactive

-- ask Write down the call the test reported for this molecule. Item: Cc1cccc2c1CC(C1OC(=O)c3c(C)cccc31)C2=O (stereo not given)
-- reply inactive

-- ask Write down the call the test reported for this molecule. Item: COc1ccc(Nc2nc3c(N)cc(C(F)(F)F)cc3nc2-c2ccccc2)cc1
-- reply inactive

---

# Tested on: SK-MEL-28
# experimentDescription: NCI tumour cell line growth inhibition, 48 h
Active and inactive are the calls of the source. No stated cut-off is given here; in the data, active = GI50 up to about 1.1 µM and inactive = higher.
assayEndpoint: GI50

// sample O=C1Nc2ccccc2/C1=N/Nc1nc(-c2ccc([N+](=O)[O-])cc2)cs1 , its GI50 was 29.7 µM (inactive)

---

# Test system: SK-MEL-28
# experimentDescription: NCI tumour cell line growth inhibition, 48 h
The source made the active and inactive calls. Rule as the data show it: active = GI50 up to about 1.1 µM and inactive = higher.
assayEndpoint: GI50

CN(C)c1ccc2c(c1)oc(=O)c1ccccc12 | 17.5 µM (inactive)
Cn1c2ccccc2c(=O)c2c(O)cc3c(c21)CC(C1(C)CO1)O3 (stereo unspecified) | 2.79 µM (inactive)
CCOC(=O)C(=C=Cc1cccs1)C(=O)c1ccccc1 | 14.8 µM (inactive)
C=CCC1(CC)C(=O)NC(=O)NC1=O | > 100 µM (inactive)
Cc1c(-c2ccccc2)nn2cc(-c3ccccc3)nnc12 | 27.6 µM (inactive)

Could you now look at the following compound, please?
// sample O=C(CC1Sc2ccccc2NC1=O)Nc1ccccc1[N+](=O)[O-] (stereo unspecified) , its GI50 was > 100 µM (inactive)
